measurement notes: method code SF, from DOI: 10.1016/j.nucmedbio.2004.02.004, PMID: 15219281
# logP values compiled below
# output: bare number, no unit

molecule: O=c1[nH]c(=O)n([C@@H]2O[C@H](CO)[C@@H](O)[C@H]2F)cc1/C=C/I
logP: 1.21

Okay, next one:
Would you mind telling me what logP value was observed for O=c1[nH]c(=O)n(C2CC(O)C(CO)O2)cc1/C=C/I (configuration not stated) ? 1.1

----------
measurement notes: method code SF-HPLC, from DOI: 10.1002/ps.2780170106
assay setup: pH 2.0
readout label: logD
The answer should be written as a number, with no unit following it.

logD for O=C(O)CCOc1cccc2ccccc12 ? 3

----------
measurement notes: method code SF, from DOI: 10.1021/jm00010a006, PMID: 7752187
readout label: logP

// lookup logP for c1ccc(Cn2cnnc2)cc1 0.74

----------
readout label: logP
Answer as a number with no unit attached.

What value of logP has been reported for the following molecule? CCn1cc(C(=O)O)c(=O)c2cc([N+](=O)[O-])c(NCCO)cc21 0.98

----------
measurement notes: method code SF-HPLC, from DOI: 10.1023/a:1015956705293, PMID: 3244625
assay setup: pH 3.3
readout label: logD
When you answer, write just the number.

Would you kindly share the measured logD for C[C@]12CCC(=O)C=C1CC[C@@H]1[C@@H]2[C@@H](O)C[C@@]2(C)[C@H]1CC[C@]2(O)C(=O)COC(=O)CCCCCC(=O)O ? 3.26

----------
measurement notes: method code SF-CR+AS, from Korenman, Y. (1973). Extraction of guaiacol from aqueous solutions. Zh. Prikl. Khim., 46(6)1391-1394.
assay setup: pH 2.0
readout label: logD
Write the number on its own, no unit after it.

Given COc1ccccc1O , state its recorded logD. 1.35

----------
measurement notes: method code SF-HPLC, from DOI: 10.1016/j.ejpb.2006.11.002, PMID: 17182232
assay setup: pH 7.4
readout label: logD
Output: the number by itself.

compound: COC(=O)C(NC(=O)c1cccnc1)n1cc(F)c(=O)[nH]c1=O (configuration not stated)
readout label: logD
recorded value: -0.12

Next up:
Which value of logD has been reported for CCOC(=O)C(NC(=O)c1cccnc1)n1cc(F)c(=O)[nH]c1=O (configuration not stated) in the records? 0.21

----------
measurement notes: method code SF, from Ganellin, C. R., & Durant, G. J. (1981). Histamine H2-receptor agonists and antagonists. Burgers Medicinal Chemistry, 3, 487-552.
assay setup: pH 9.2
readout label: logD

Entry under review: CNC(=S)NCCCCc1nc[nH]c1C . Reported logD? 0.85

----------
measurement notes: method code SF-RC, from DOI: 10.1021/jm070791g.s001, PMID: 17960926
readout label: logP
Number only, no unit.

Request the reported logP associated with O=c1[nH]c(=O)n([C@H]2C=C[C@@H](CO)C2)cc1I 0.29

----------
measurement notes: method code SF-AS, from DOI: 10.1016/0006-2952(75)90156-2, PMID: 235934
assay setup: pH 7.4
readout label: logD
Respond using a number only.

Give the measured logD of CCOc1ccc([N+](=O)[O-])cc1 . 2.53

----------
readout label: logP

Would you mind telling me what logP value was observed for CC(C)(c1cc(Br)c(O)c(Br)c1)c1cc(Br)c(O)c(Br)c1 ? 5.2

----------
measurement notes: from Tehrany, E.A.; Desobry, S. (2005). Comparison between the different calculation methods of partition coefficient of aroma compounds with a difference chemical classes in octanol/water system. …
readout label: logP
Please reply with the number alone, leaving off any unit.

Recorded logP for CCCCCC=O , please? 1.85

----------
readout label: logP

// lookup logP for CSc1ncnc2[nH]cnc12 0.57

----------
molecules and their reported logP
Answer with the value's number alone.

molecule: CN1CC(O)N(c2nnc(C(C)(C)C)s2)C1=O (configuration not stated)
logP: 1.45

From here, focus on the item given below.
Recorded logP of CON(C)C(=O)Nc1ccc(Cl)c(Cl)c1 , please. 3

----------
Here the recorded logP is given for each entry.
Give the figure by itself; no unit, no explanation.

Please review the following examples before continuing.
compound: CC1CCCC(C)C1O (centres undefined)
recorded value: 2.37
//
compound: CCCC(O)CC (centres undefined)
recorded value: 1.65
//
compound: C[C@@H]1CCCC[C@H]1O
recorded value: 1.82

Next, consider the following compound.
Requested field: logP. Item: CCCCCCC(C)O (centres undefined) 2.9

----------
In this section we review reported logP values for a set of compounds.

Solved cases (3 shown):
smiles text: CCCCCCCCCCCCCCCCOC(=O)N(C)SN(C)C(=O)Oc1ccc2c(c1)OCO2
logP: 10.5

smiles text: CCCCCCCCCCCCOC(=O)N(C)SN(C)C(=O)Oc1ccc2c(c1)OCO2
logP: 7.39

smiles text: CCCCCCCCOC(=O)N(C)SN(C)C(=O)Oc1ccc2c(c1)OCO2
logP: 4.67

# logP lookup, item CC(C)Oc1ccccc1OC(=O)N(C)SN(C)C(=O)Oc1ccc2c(c1)OCO2 2.7

----------
readout label: logP
Would you mind answering with just the numeric figure?

Query (compound): CC(C)(C)NC(=O)[C@@H]1C[C@@H]2CCCC[C@@H]2CN1C[C@@H](O)[C@H](Cc1ccccc1)NC(=O)[C@H](CC(N)=O)NC(=O)c1ccc2ccccc2n1 ; field requested: logP 3

----------
measurement notes: method code SF, from DOI: 10.1007/bf00253009, PMID: 7273265
assay setup: pH 7.4
readout label: logD
API doc: respond with a numeric literal and nothing else, no unit.

Data request, read-out logD, for O=C(Cn1ccnc1[N+](=O)[O-])N(CO)CO -1.59

----------
measurement notes: method code SF, from DOI: 10.1021/jm00378a018, PMID: 6389865
assay setup: pH 7.0
Listing of entries alongside the reported logD.

Study these solved cases before continuing.
compound: COC(=O)c1nc(NCC(O)CO)cnc1[N+](=O)[O-] (centres undefined)
readout label: logD
recorded value: -0.1
//
compound: Nc1nc(NCCO)c(Cl)nc1[N+](=O)[O-]
readout label: logD
recorded value: 0.12
//
compound: O=[N+]([O-])c1cnc(NC(CO)C(O)CO)cn1 (centres undefined)
readout label: logD
recorded value: -0.89

Could you now look at the following compound, please?
Entry O=[N+]([O-])c1nccnc1NCC(O)CO (centres undefined) has what logD? -0.49

----------
readout label: logP
// no unit string in output, number only

Quick check: logP of CCCCCC(CCO)C1N=N1 (stereo unspecified) ? 2.52

----------
measurement notes: method code SF-RI, from Korenman, M.; Dobromyslova, M. (1975). Distribution of cellosolves between organic solvents and water. Zh. Prikl. Khim., 48(12)2791-2794.
readout label: logP
Answer with the value's number alone.

# get_value(readout='logP', item= CC(C)OCCO ) 0.05

----------
measurement notes: method code SF-AS, from DOI: 10.1002/1521-3838(200111)20:4<291::aid-qsar291>3.0.co;2-q
readout label: logP
Please reply with the value in numeric form only.

Solved entries (count: 3):
smiles text: S=c1[nH]nc(-c2ccc(Cl)cc2)o1
logP: 3.66
--
smiles text: Oc1ccccc1-c1n[nH]c(=S)o1
logP: 2.42
--
smiles text: Cc1ccc(-c2n[nH]c(=S)o2)cc1
logP: 3.44

Now look at this one.
Which logP value is on record for S=c1[nH]nc(-c2ccccc2Cl)o1 ? 3.36

----------
readout label: logP
Please give only the number in your answer, with no unit.

What does the data say about its logP? Entry: CCOP(=S)(OCC)Oc1nc(Cl)c(Cl)cc1Cl 4.77

----------
measurement notes: method code SF-ESR, from DOI: 10.1111/1523-1747.ep12319780, PMID: 2551971
assay setup: pH 7.0
readout label: logD
Lab note: write the figure by itself, no unit.

// returns reported logD for input CC1(C)COC(C)(C)N1O 0.48

----------
# logP values compiled below
// print number alone

compound: c1nnn(C23CC4CC(CC(C4)C2)C3)n1
recorded value: 2.95

compound: c1ccc2nn(C34CC5CC(CC(C5)C3)C4)cc2c1
recorded value: 3.68

compound: c1ccc(C23CC4CC(CC(C4)C2)C3)cc1
recorded value: 5.55

What does the record list as logP for c1ccc2c(c1)nnn2C12CC3CC1CCC2C3 (centres undefined) ? 3.52

----------
measurement notes: method code SF-HPLC, from DOI: 10.1016/s0021-9673(99)01336-9, PMID: 10757301
readout label: logP

Fill in the blank: the reported logP of CO/N=C(\C(=O)N[C@@H]1C(=O)N2C(C(=O)O)=C(COC(N)=O)CS[C@H]12)c1ccco1 is ____. -0.17

----------
measurement notes: method code SF-RC, from PMID: 9639294
assay setup: pH 7.5
readout label: logD
Write no unit; give the number alone.

Item CCOC(=O)C1=C(COCCOCCNC(=O)C(C)(C)C)NC(C)=C(C(=O)OC)C1c1cccc(Cl)c1Cl (stereo unspecified) has what recorded logD? 2.12
